- assay-protocol: Intrinsic clearance
- Type: in vitro ADME
- assay-setup: rat, rat liver microsomes, pH 7.4
quantity-kind: CLint scaled at […], 50 µM (mL/min/kg)
// units = mL/min/kg; emit number, no label

Example results:
# compound, unit-name, CLint scaled at […], 50 µM
measured = [
    ("O=C(c1ccc(F)c(Cl)c1)N1CCC(F)(CNCCOc2ccccc2)CC1 [Compound 3]", "mL/min/kg", 41.7),
    ("O=C1CCc2ccc(OCCCCN3CCN(c4cccc(Cl)c4Cl)CC3)cc2N1 [aripiprazole, reference compound]", "mL/min/kg", 7.02),
    ("CNc1ccccc1OCCNCC1(F)CCN(C(=O)c2ccc(F)c(Cl)c2)CC1 [Compound 44]", "mL/min/kg", 48.8),
]

Let us examine a further case.
stdin: I am curious: what CLint scaled at […], 50 µM value has been reported for O=C(c1ccc(F)c(Cl)c1)N1CCC(F)(CNCCOc2cccc3[nH]ccc23)CC1 [Compound 56] ?
stdout: 9.6

###

- assay-protocol: Intrinsic clearance
- Type: in vitro ADME
- assay-setup: rat, rat liver microsomes, pH 7.4
quantity-kind: CLint scaled at 50 μM (mL/min/kg)
// units = mL/min/kg; emit number, no label

stdin: I am curious: what CLint scaled at 50 μM value has been reported for O=C1CCc2ccc(OCCCCN3CCN(c4cccc(Cl)c4Cl)CC3)cc2N1 [aripiprazole, reference compound] ?
stdout: 7.2

###

- Tested on: HepG2 cells
- assay-protocol: Hepatotoxicity, HepG2 cell viability
- Type: cell-based, human
- assay-setup: 72 h incubation
This listing pairs compounds with measured hepatotoxicity 50% viability of HepG2 cells.

stdin: I am curious: what hepatotoxicity 50% viability of HepG2 cells value has been reported for O=C(c1ccc(F)c(Cl)c1)N1CCC(F)(CNCCOc2cccc3[nH]ccc23)CC1 ?
stdout: >50 µM

stdin: I am curious: what hepatotoxicity 50% viability of HepG2 cells value has been reported for COc1cccc2c1C(=O)c1c(O)c3c(c(O)c1C2=O)C[C@@](O)(C(=O)CO)C[C@@H]3O[C@H]1C[C@H](N)[C@H](O)[C@H](C)O1 [Doxorubicin, reference compound] ?
stdout: <1 µM

stdin: I am curious: what hepatotoxicity 50% viability of HepG2 cells value has been reported for N#CC(C#N)=NNc1cccc(Cl)c1 [CCCP, reference compound] ?
stdout: <10 µM

stdin: I am curious: what hepatotoxicity 50% viability of HepG2 cells value has been reported for O=C(c1ccc(F)c(Cl)c1)N1CCC(F)(CNCCOc2ccccc2)CC1 ?
stdout: >50 µM

###

This listing pairs molecules with measured fraction unbound at 30 min, 3 µg/mL.
- assay-protocol: In vitro rat plasma protein binding (ultrafiltration)
- Assay type: in vitro ADME
- assay-setup: male, Wistar; C0 3 µg/mL, rat serum; read-out: PPB ± SD (converted)
Form: value (number only, do not type unit).

# molecule, fraction unbound at 30 min, 3 µg/mL
records = [
    ("CNc1ccccc1OCCNCC1(F)CCN(C(=O)c2ccc(F)c(Cl)c2)CC1 [Compound 44]", 0.016),
]

stdin: I am curious: what fraction unbound at 30 min, 3 µg/mL value has been reported for O=C(c1ccc(F)c(Cl)c1)N1CCC(F)(CNCCOc2cccc3[nH]ccc23)CC1 [Compound 56] ?
stdout: 0.011

###

- assay-protocol: Preliminary metabolic stability in rat liver microsomes
- Assay type: in vitro ADME
- assay-setup: pH 7.4, RLMs 1 mg/mL, 50 μM compound, 37 °C
Grouping by measured remaining at 2 h, 50 μM is done with the following cut points: category 1 (below 60%), category 2 (60% to below 90%), category 3 (90% or more)

Answered examples (5):
# molecule, group-label
rows = [
    ("O=C(c1ccc(F)c(Cl)c1)N1CCC(F)(CNCCOc2cccc3cccnc23)CC1 [Compound 51]", "category 2"),
    ("Cc1cnc(CNCC2(F)CCN(C(=O)c3ccc(F)c(Cl)c3)CC2)nc1 [Compound 1, reference compound]", "category 3"),
    ("CC(=O)Nc1cccc(OCCNCC2(F)CCN(C(=O)c3ccc(F)c(Cl)c3)CC2)c1 [Compound 47]", "category 2"),
    ("O=C1CCc2ccc(OCCCCN3CCN(c4cccc(Cl)c4Cl)CC3)cc2N1 [aripiprazole, reference compound]", "category 2"),
    ("O=C(c1ccc(F)c(Cl)c1)N1CCC(F)(CNCCOc2cccc3c2CCN3)CC1 [Compound 57]", "category 1"),
]

# next molecule below
stdin: Which category fits this record: CC1(C)Cc2cccc(OCCNCC3(F)CCN(C(=O)c4ccc(F)c(Cl)c4)CC3)c2O1 [Compound 55]
stdout: category 1

This collection of values is drawn from paper PMC7586344.
